Recorded values, source ChEMBL document CHEMBL3861956.

ASSAY_DETAILS: Antiproliferative activity against human PC3 cells after 72 hrs by Alamar Blue assay
SETUP_CONDITIONS: PC-3, 72 h

SMILES_RECORD	IC50 [nM]
COc1cc([C@@H]2c3cc4c(c(OC)c3C[C@H]3COC(=O)[C@@H]32)OCO4)cc2c1OCO2	47
CC(=O)O[C@H]1C(=O)[C@@]2(C)[C@H]([C@H](OC(=O)c3ccccc3)[C@]3(O)C[C@H](OC(=O)[C@H](O)[C@@H](NC(=O)c4ccccc4)c4ccccc4)C(C)=C1C3(C)C)[C@]1(OC(C)=O)CO[C@@H]1C[C@@H]2O	2
COc1cc([C@@H]2c3cc4c(cc3C[C@@H](C)[C@@H]2C)OCO4)cc(OC)c1OC	823
COc1cc([C@@H]2c3cc4c(cc3C[C@@H](C)[C@@H]2C(=O)O)OCO4)cc2c1OCO2	1630
COc1cc(C(c2ccc(O)c(OC)c2)[C@@H](C)[C@H](C)CO)ccc1O	6360
COc1cc([C@@H]2O[C@H](c3ccc4c(c3)OCO4)[C@@H](C)[C@@H]2C)ccc1O	5110
COc1cc([C@@H]2c3cc4c(c(OC)c3C[C@H]3COC(=O)[C@@H]32)OCO4)cc(OC)c1OC	16
COc1cc([C@@H]2c3cc4c(cc3C[C@H]3COC(=O)[C@@H]32)OCO4)cc2c1OCO2	50
COc1cc(C(=O)O[C@@H](c2ccc3c(c2)OCO3)[C@H](C)C(C)=O)ccc1O	1910
COc1cc([C@@H]2c3cc4c(cc3C[C@@H](C)[C@@H]2C)OCO4)cc2c1OCO2	2060
COc1cc([C@@H]2c3cc4c(cc3C[C@H]3COC(=O)[C@@H]32)OCO4)cc(OC)c1OC	18
